The entries below come with measured MIC Escherichia coli (ATCC 25922) values attached.
# Test system: Escherichia coli
# assay overview: in vitro antibacterial evaluation, MIC by broth dilution
# Assay type: cell-based
# reported conditions: 18 hours at 35° C., strain ATCC 25922
# Text: Methods for in vitro Antibacterial Evaluation (Table 1) […]

{"compound": "N=C1NCC(C(O)C2NC(=O)C(Cc3ccc(OC4OC(CO)C(OC5OC6COC7(OC6C6OC8(OC56)C5CC6CC(C5)CC8C6)C5CC6CC(C5)CC7C6)C(O)C4O)cc3)NC(=O)C(CC3CCCCC3)NC(=O)CNC(=O)C(CO)NC(=O)C(C(O)C3CNC(=N)N3C3OC(CO)C(O)C(O)C3O)NC2=O)N1 (stereo not shown) [Example 106b]", "units of measure": "µg/mL", "MIC Escherichia coli (ATCC 25922)": 64}
{"compound": "CC(C)CC1OCC2OC(OC3C(CO)OC(Oc4ccc(CC5NC(=O)C(C(C)c6ccccc6)NC(=O)CNC(=O)C(CO)NC(=O)C(C(O)C6CNC(=N)N6C6OC(CO)C(O)C(O)C6O)NC(=O)C(C(O)C6CNC(=N)N6)NC5=O)cc4)C(O)C3O)C(O)C(O)C2O1 (stereo not shown) [Example 107]", "units of measure": "µg/mL", "MIC Escherichia coli (ATCC 25922)": 64}
{"compound": "CC(c1ccccc1)C1NC(=O)CNC(=O)C(CO)NC(=O)C(C(O)C2CNC(=N)N2C2OC(CO)C(O)C(O)C2O)NC(=O)C(C(O)C2CNC(=N)N2)NC(=O)C(Cc2ccc(OC3OC(CO)C(OC4OC5COC(Cc6ccc(F)cc6)OC5C(O)C4O)C(O)C3O)cc2)NC1=O (stereo not shown) [Example 121]", "units of measure": "µg/mL", "MIC Escherichia coli (ATCC 25922)": 32}
{"compound": "CC(c1ccccc1)C1NC(=O)CNC(=O)C(CO)NC(=O)C(C(O)C2CNC(=N)N2C2OC(CO)C(O)C(O)C2O)NC(=O)C(C(O)C2CNC(=N)N2)NC(=O)C(Cc2ccc(OC3OC(CO)C(OC4OC5COC(C6CCCCC6)OC5C(O)C4O)C(O)C3O)cc2)NC1=O (stereo not shown) [Example 112]", "units of measure": "µg/mL", "MIC Escherichia coli (ATCC 25922)": 32}
